viability, T/C values, listed per item
tested on: 292921-168-R-J2-PDC spheroids with HUVEC/MSC, viability; test: Anticancer human tumor 292921-168-R-J2-PDC patient-derived pancreatic carcinoma cell line growth inhibition [TAK]; settings: second compound 3 µM; first compound 0.1 µM; stronger effect = lower value

The cases that follow already have their viability, T/C on record.
molecule	assay_system	reported_measurement
CC(C)CC(NC(=O)CNC(=O)c1cc(Cl)ccc1Cl)B1OC(=O)CC(CC(=O)O)(C(=O)O)O1 (stereo unspecified) + CC(C)NCC(C(=O)N1CCN(c2ncnc3c2C(C)CC3O)CC1)c1ccc(Cl)cc1	292921-168-R-J2-PDC spheroids with HUVEC/MSC, viability	9.38%
Cc1nc(NC(=O)N2CCCC2C(N)=O)sc1-c1ccnc(C(C)(C)C(F)(F)F)c1 (stereo unspecified) + CC(C)NCC(C(=O)N1CCN(c2ncnc3c2C(C)CC3O)CC1)c1ccc(Cl)cc1	292921-168-R-J2-PDC spheroids with HUVEC/MSC, viability	61.7%

**Query** Give the reported viability, T/C for this molecule. COc1c(OCCCN2CCOCC2)ccc2c3n(c(=NC(=O)c4cnc(N)nc4)nc12)CCN3 + CC(C)NCC(C(=O)N1CCN(c2ncnc3c2C(C)CC3O)CC1)c1ccc(Cl)cc1
**Result** 12.4%

**Query** Give the reported viability, T/C for this molecule. CC(C)n1nc(-c2ccc3oc(N)nc3c2)c2c(N)ncnc21 + CC(C)NCC(C(=O)N1CCN(c2ncnc3c2C(C)CC3O)CC1)c1ccc(Cl)cc1
**Result** 29%

**Query** Give the reported viability, T/C for this molecule. CC(C)(C)c1nc(-c2cccc(NS(=O)(=O)c3c(F)cccc3F)c2F)c(-c2ccnc(N)n2)s1 + CC(C)NCC(C(=O)N1CCN(c2ncnc3c2C(C)CC3O)CC1)c1ccc(Cl)cc1
**Result** 85.9%

**Query** Give the reported viability, T/C for this molecule. COC1CC2CCC(C)C(O)(O2)C(=O)C(=O)N2CCCCC2C(=O)OC(C(C)CC2CCC(OCCO)C(OC)C2)CC(=O)C(C)C=C(C)C(O)C(OC)C(=O)C(C)CC(C)C=CC=CC=C1C (stereo unspecified) + CC(C)NCC(C(=O)N1CCN(c2ncnc3c2C(C)CC3O)CC1)c1ccc(Cl)cc1
**Result** 41.6%

###

tested on: 292921-168-R-J2-PDC spheroids with HUVEC/MSC, viability; test: Anticancer human tumor 292921-168-R-J2-PDC cell line growth inhibition [TAK]; conditions: second compound 3 µM; first compound 0.0316 µM; stronger effect = lower value;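 further: spheroids exposed to drugs for seven days before readout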
observed_property: viability, T/C (%)
Form entry: value (%) — number only.

The cases that follow already have their viability, T/C on record.
compound	assay_system	measurement_unit	viability, T/C
COc1c(OCCCN2CCOCC2)ccc2c3n(c(=NC(=O)c4cnc(N)nc4)nc12)CCN3 + CC(C)NCC(C(=O)N1CCN(c2ncnc3c2C(C)CC3O)CC1)c1ccc(Cl)cc1	292921-168-R-J2-PDC spheroids with HUVEC/MSC, viability	%	15.2
COC1CC2CCC(C)C(O)(O2)C(=O)C(=O)N2CCCCC2C(=O)OC(C(C)CC2CCC(OCCO)C(OC)C2)CC(=O)C(C)C=C(C)C(O)C(OC)C(=O)C(C)CC(C)C=CC=CC=C1C (stereo not drawn) + CC(C)NCC(C(=O)N1CCN(c2ncnc3c2C(C)CC3O)CC1)c1ccc(Cl)cc1	292921-168-R-J2-PDC spheroids with HUVEC/MSC, viability	%	43.8

Next, consider the following compound.
**Query** Give the reported viability, T/C for this compound. Cc1nc(NC(=O)N2CCCC2C(N)=O)sc1-c1ccnc(C(C)(C)C(F)(F)F)c1 (stereo not drawn) + CC(C)NCC(C(=O)N1CCN(c2ncnc3c2C(C)CC3O)CC1)c1ccc(Cl)cc1
**Result** 68.5
